Test system: Saccharomyces cerevisiae
Assay: protein stability index of tFT-peptide fusion (C-terminal peptide) (PSI (0-1 scale)); higher = more stable (slower turnover);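 note: PSI is a weighted mean of sequencing reads over stability bins, variants kept only with over 10 reads, mCherry proximal and sfGFP distal, peptide attached via GGGS linker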
Conditions: genetic background: wild type; temperature: 30 C
Record rule met whenever protein stability index is at 0.7 or higher; record rule not met when lower.

# input Given the entry PPDLPVPRPSFR , answer whether its protein stability index meets or surpasses 0.7.
# output rule not met

# input Given the entry ICIFWLITGLWL , answer whether its protein stability index meets or surpasses 0.7.
# output rule not met

# input Given the entry YCTAGVCVKAGR , answer whether its protein stability index meets or surpasses 0.7.
# output rule met

# input Given the entry FPAPFLRVSPLW , answer whether its protein stability index meets or surpasses 0.7.
# output rule not met

# input Given the entry MRDRDSVDNMDG , answer whether its protein stability index meets or surpasses 0.7.
# output rule not met

# input Given the entry RSTRDKTRLAKD , answer whether its protein stability index meets or surpasses 0.7.
# output rule met

# input Given the entry EFEIALTLIRSI , answer whether its protein stability index meets or surpasses 0.7.
# output rule not met

# input Given the entry RNLHVSMGKCSP , answer whether its protein stability index meets or surpasses 0.7.
# output rule met

# input Given the entry QIGSMLGVQGVG , answer whether its protein stability index meets or surpasses 0.7.
# output rule not met

# input Given the entry TYIVVAPTLARL , answer whether its protein stability index meets or surpasses 0.7.
# output rule not met

# input Given the entry WAGGGGGRVCGW , answer whether its protein stability index meets or surpasses 0.7.
# output rule met

# input Given the entry PSCDCFLLLAPR , answer whether its protein stability index meets or surpasses 0.7.
# output rule not met

# input Given the entry HRCPSPPWFHPS , answer whether its protein stability index meets or surpasses 0.7.
# output rule met

# input Given the entry VGCRVVPGAGEV , answer whether its protein stability index meets or surpasses 0.7.
# output rule not met

# input Given the entry VECLDTKTTCNI , answer whether its protein stability index meets or surpasses 0.7.
# output rule met

# input Given the entry LHPPLTLTFYLS , answer whether its protein stability index meets or surpasses 0.7.
# output rule not met

# input Given the entry VVGRVGGFVGPG , answer whether its protein stability index meets or surpasses 0.7.
# output rule not met

# input Given the entry WCFSLGYFFFCR , answer whether its protein stability index meets or surpasses 0.7.
# output rule not met

# input Given the entry FVGWVAMGGSVV , answer whether its protein stability index meets or surpasses 0.7.
# output rule met

# input Given the entry KKKKNHKRKKRN , answer whether its protein stability index meets or surpasses 0.7.
# output rule met

# input Given the entry RWFILCRSLPTG , answer whether its protein stability index meets or surpasses 0.7.
# output rule not met

# input Given the entry PHRSTRIDVDPC , answer whether its protein stability index meets or surpasses 0.7.
# output rule met

# input Given the entry PVFPPPAPTPPT , answer whether its protein stability index meets or surpasses 0.7.
# output rule not met

# input Given the entry WRRPRVLWVSSR , answer whether its protein stability index meets or surpasses 0.7.
# output rule not met

# input Given the entry EKKNGKEKEKER , answer whether its protein stability index meets or surpasses 0.7.
# output rule not met

# input Given the entry IRQITVTICRGR , answer whether its protein stability index meets or surpasses 0.7.
# output rule not met

# input Given the entry QAGKPLYVEMVS , answer whether its protein stability index meets or surpasses 0.7.
# output rule not met

# input Given the entry SAGDLFVFEYLG , answer whether its protein stability index meets or surpasses 0.7.
# output rule not met

# input Given the entry PPPLPPSSPTYS , answer whether its protein stability index meets or surpasses 0.7.
# output rule not met

# input Given the entry KYNKQRQTRIET , answer whether its protein stability index meets or surpasses 0.7.
# output rule not met

# input Given the entry VGQVGAGAVPVG , answer whether its protein stability index meets or surpasses 0.7.
# output rule not met

# input Given the entry AELPPETKRLTR , answer whether its protein stability index meets or surpasses 0.7.
# output rule not met

# input Given the entry GRFCGGAVSGGM , answer whether its protein stability index meets or surpasses 0.7.
# output rule not met

# input Given the entry GCRDQKLGVGVD , answer whether its protein stability index meets or surpasses 0.7.
# output rule met

# input Given the entry RWATLSREFYQI , answer whether its protein stability index meets or surpasses 0.7.
# output rule not met

# input Given the entry KQTICNTGPQWV , answer whether its protein stability index meets or surpasses 0.7.
# output rule not met

# input Given the entry AYVQPASRSPPP , answer whether its protein stability index meets or surpasses 0.7.
# output rule met

# input Given the entry PSPPPPPPPQPS , answer whether its protein stability index meets or surpasses 0.7.
# output rule met

# input Given the entry PSLPPDLPPPPA , answer whether its protein stability index meets or surpasses 0.7.
# output rule met

# input Given the entry RKKKKKEKKKVE , answer whether its protein stability index meets or surpasses 0.7.
# output rule met

# input Given the entry GAGGVWVRAWGP , answer whether its protein stability index meets or surpasses 0.7.
# output rule met

# input Given the entry VGGGGRSTGVGK , answer whether its protein stability index meets or surpasses 0.7.
# output rule not met

# input Given the entry LFFFVCYLATVK , answer whether its protein stability index meets or surpasses 0.7.
# output rule not met

# input Given the entry RPGLCLTFFSAH , answer whether its protein stability index meets or surpasses 0.7.
# output rule not met

# input Given the entry LGVWGGGRGVRG , answer whether its protein stability index meets or surpasses 0.7.
# output rule met

# input Given the entry SKPTQQNRRPDG , answer whether its protein stability index meets or surpasses 0.7.
# output rule not met

# input Given the entry WGSSCQAEDVTN , answer whether its protein stability index meets or surpasses 0.7.
# output rule met

# input Given the entry VDHWVCWCGGWG , answer whether its protein stability index meets or surpasses 0.7.
# output rule met

###

Tested on: Saccharomyces cerevisiae
Test: protein stability index of tFT-peptide fusion (C-terminal peptide) (PSI (0-1 scale)); higher = more stable (slower turnover)
Details: genetic background: wild type; temperature: 30 C
Record rule met whenever protein stability index is at 0.2 or higher; record rule not met when lower.

# input Given the entry CMPVYYTVVIRL , answer whether its protein stability index meets or surpasses 0.2.
# output rule not met

# input Given the entry FSCLCLCVATSG , answer whether its protein stability index meets or surpasses 0.2.
# output rule met

# input Given the entry SLRYRFLSFFFL , answer whether its protein stability index meets or surpasses 0.2.
# output rule met

# input Given the entry RIFWMFFSQHIG , answer whether its protein stability index meets or surpasses 0.2.
# output rule not met

# input Given the entry EGLCCGAYFLVF , answer whether its protein stability index meets or surpasses 0.2.
# output rule met

# input Given the entry SLSFLRPLLLIF , answer whether its protein stability index meets or surpasses 0.2.
# output rule not met

# input Given the entry IIAGVWFLEILG , answer whether its protein stability index meets or surpasses 0.2.
# output rule met

# input Given the entry KVGPVLLLCRRS , answer whether its protein stability index meets or surpasses 0.2.
# output rule met

# input Given the entry LVGLLASWLRFN , answer whether its protein stability index meets or surpasses 0.2.
# output rule not met

###

System: Saccharomyces cerevisiae
Test: protein stability index of tFT-peptide fusion (C-terminal peptide) (PSI (0-1 scale)); higher = more stable (slower turnover)
Conditions: genetic background: cdc34-1; temperature: 37 C
Record satisfied whenever protein stability index is at 0.4 or higher; record not satisfied when lower.

# input Given the entry GGGGLRVVVWLV , answer whether its protein stability index meets or surpasses 0.4.
# output satisfied

# input Given the entry SEVMVGLRLTLN , answer whether its protein stability index meets or surpasses 0.4.
# output satisfied

# input Given the entry SFSIPILLLAFP , answer whether its protein stability index meets or surpasses 0.4.
# output not satisfied

# input Given the entry PSPRLSLPPRLP , answer whether its protein stability index meets or surpasses 0.4.
# output satisfied

# input Given the entry FLVVCGLLSWVW , answer whether its protein stability index meets or surpasses 0.4.
# output not satisfied

# input Given the entry IVRDTECGIFYR , answer whether its protein stability index meets or surpasses 0.4.
# output satisfied

# input Given the entry SFYAGLVVGGVG , answer whether its protein stability index meets or surpasses 0.4.
# output satisfied

# input Given the entry VVFLLGPLVCGG , answer whether its protein stability index meets or surpasses 0.4.
# output satisfied

# input Given the entry YKLRAVFVCSVT , answer whether its protein stability index meets or surpasses 0.4.
# output satisfied

# input Given the entry MLTYVVRSLVGY , answer whether its protein stability index meets or surpasses 0.4.
# output satisfied

# input Given the entry LSRSAGVGVWVG , answer whether its protein stability index meets or surpasses 0.4.
# output satisfied

# input Given the entry LRMMLLVTIILE , answer whether its protein stability index meets or surpasses 0.4.
# output not satisfied

# input Given the entry GGVVLVVVFCCV , answer whether its protein stability index meets or surpasses 0.4.
# output not satisfied

# input Given the entry RRQLVLVLSWVI , answer whether its protein stability index meets or surpasses 0.4.
# output satisfied

# input Given the entry RLICFFSMYLRF , answer whether its protein stability index meets or surpasses 0.4.
# output not satisfied

# input Given the entry PFFVFSFLFLLH , answer whether its protein stability index meets or surpasses 0.4.
# output not satisfied

# input Given the entry SVIAYTKPLWFR , answer whether its protein stability index meets or surpasses 0.4.
# output satisfied

# input Given the entry RCTFSFSFPFVL , answer whether its protein stability index meets or surpasses 0.4.
# output satisfied

# input Given the entry VAWFFFAYAFFM , answer whether its protein stability index meets or surpasses 0.4.
# output not satisfied

# input Given the entry RMTFFGFTVKML , answer whether its protein stability index meets or surpasses 0.4.
# output satisfied

# input Given the entry WFGCSTVWVRVQ , answer whether its protein stability index meets or surpasses 0.4.
# output not satisfied

# input Given the entry LCSVVIFCLVWG , answer whether its protein stability index meets or surpasses 0.4.
# output not satisfied

# input Given the entry LLSILSSLPLSR , answer whether its protein stability index meets or surpasses 0.4.
# output satisfied

# input Given the entry LLFSVLLLGVGF , answer whether its protein stability index meets or surpasses 0.4.
# output satisfied

# input Given the entry QVVWAVPRICLV , answer whether its protein stability index meets or surpasses 0.4.
# output satisfied

# input Given the entry GVARALFLWKAV , answer whether its protein stability index meets or surpasses 0.4.
# output satisfied

# input Given the entry LWFFVVVVVRWV , answer whether its protein stability index meets or surpasses 0.4.
# output not satisfied

# input Given the entry YVGILCTGILTV , answer whether its protein stability index meets or surpasses 0.4.
# output satisfied

# input Given the entry SVAGFFLLLLLS , answer whether its protein stability index meets or surpasses 0.4.
# output not satisfied

# input Given the entry RLFVRIQLSLLF , answer whether its protein stability index meets or surpasses 0.4.
# output not satisfied

# input Given the entry GCVGLSFCVWVG , answer whether its protein stability index meets or surpasses 0.4.
# output not satisfied

# input Given the entry RVLVEIVYFKVF , answer whether its protein stability index meets or surpasses 0.4.
# output not satisfied

# input Given the entry PTAGFFGLLVLV , answer whether its protein stability index meets or surpasses 0.4.
# output not satisfied

# input Given the entry VFSCFLFLVVLV , answer whether its protein stability index meets or surpasses 0.4.
# output not satisfied

# input Given the entry SYCFCCCVLFWG , answer whether its protein stability index meets or surpasses 0.4.
# output satisfied

# input Given the entry RWAAAVPLLVVG , answer whether its protein stability index meets or surpasses 0.4.
# output not satisfied

# input Given the entry VICVVLSKVFLF , answer whether its protein stability index meets or surpasses 0.4.
# output satisfied

# input Given the entry SRWMWFDWLRRA , answer whether its protein stability index meets or surpasses 0.4.
# output satisfied

# input Given the entry RVIRHLRRISNF , answer whether its protein stability index meets or surpasses 0.4.
# output satisfied

# input Given the entry TLLAFLIYLCFL , answer whether its protein stability index meets or surpasses 0.4.
# output satisfied
